Recorded measurements of MIC, one per entry
System: Candida tropicalis
test method notes: Antifungal activity against Candida tropicalis assessed as inhibition of fungal growth incubated for 24 hrs by CLSI based two serial dilution assay
Format: functional
The reply should be a number in µM, with the unit left off.

C#CCN1C(=O)/C(=N\Nc2nccs2)c2ccccc21; 256
CCCCN1C(=O)/C(=N\Nc2nccs2)c2cccc(Cl)c21; 4
CCCCCCCCCCCCN1C(=O)/C(=N\Nc2nccs2)c2ccccc21; 16

Param readout = MIC; param system = Candida tropicalis; param query = CCCCN1C(=O)/C(=N\Nc2nccs2)c2cc(OC)ccc21 ; response: value 128

Provide the documented MIC with Candida tropicalis as the system for CCCCN1C(=O)/C(=N\Nc2nccs2)c2cc(F)ccc21 4

Could you share what MIC was measured for CCCN1C(=O)/C(=N\Nc2nccs2)c2ccccc21 , tested on Candida tropicalis? 32

Form entry - test system: Candida tropicalis; read-out: MIC; compound: O=C1/C(=N\Nc2nccs2)c2ccccc2N1Cc1cccc(F)c1 16

I'm curious: which MIC was measured for CCCCCCCCCCN1C(=O)/C(=N\Nc2nccs2)c2ccccc21 tested on Candida tropicalis? 64

Any idea what MIC came out for CCCCN1C(=O)/C(=N\Nc2nccs2)c2ccc(Br)cc21 on Candida tropicalis? 1

Enter reported MIC observed with Candida tropicalis for CCCCN1C(=O)/C(=N\Nc2nccs2)c2cc(Cl)ccc21 16

Hi! What's the reported MIC for CCCCN1C(=O)/C(=N\Nc2nc(C)cs2)c2ccccc21 on Candida tropicalis? 4

Candida tropicalis / MIC / O=C1/C(=N\Nc2nccs2)c2ccccc2N1Cc1cccc(Cl)c1 : value? 64

The measured values listed here are drawn from ChEMBL document CHEMBL5370535.
